All values here come from ChEMBL document CHEMBL3580552.

System: L6
Test: Cytotoxicity against rat L6 cells after 72 hrs by Alamar blue assay
Type: cell-based
Settings: L6, 72 h, read-out: IC50
Entries whose IC50 is below 10 µM take MET; entries at or above 10 µM take NOT MET.

As a guide, the following entries are already answered.
* CC(=O)O[C@@H]1CC[C@]2(C)[C@H]3CC[C@]4(C)C(=CC[C@H]4[C@@H]4C[C@H]([C@H](O)C(C)(C)O)OC4=O)[C@]3(C)[C@H](OC(C)=O)C[C@H]2C1(C)C | NOT MET
* CC(=O)O[C@@H]1C[C@H]2C(C)(C)C(=O)C=C[C@]2(C)[C@H]2CC[C@]3(C)C(=CC[C@H]3[C@@H]3C[C@H]([C@@H]4OC4(C)C)OC3=O)[C@@]21C | MET
* CO[C@@H]1O[C@@H]([C@H](O)C(C)(O)CO)C[C@H]1[C@@H]1CC[C@]23C[C@]12CC[C@@H]1[C@@]2(C)CC[C@H](OC(=O)C=C(C)C)C(C)(C)[C@@H]2C[C@@H](O)[C@]13C (stereo not given in full) | NOT MET
* CC(=O)O[C@@H]1C[C@H]2C(C)(C)C(=O)C=C[C@]2(C)[C@H]2CC[C@]3(C)C(=CC[C@H]3[C@@H]3C[C@H]([C@H](O)C(C)(C)O)OC3=O)[C@@]21C | NOT MET

In the following, a different molecule is considered.
## Task Below 10 µM on IC50? Entry CC(C)(O)[C@H](O)[C@H]1C[C@@H]([C@@H]2CC=C3[C@]4(C)[C@H](O)C[C@H]5C(C)(C)C(=O)C=C[C@]5(C)[C@H]4CC[C@]32C)C(=O)O1
## Result NOT MET

---

Listing: IC50 of selected compounds
Test system: Plasmodium falciparum
Test: Antiplasmodial activity against chloroquine-sensitive erythrocytic stage Plasmodium falciparum NF54 assessed as [3H]hypoxanthine incorporation after 48 to 72 hrs by Betaplate liquid scintillation counting
Assay type: functional, organism-based
Express your answer in nM, writing the number without its unit.

Reference set, count: 2
- CC(=O)O[C@@H]1CC[C@]2(C)[C@H]3CC[C@]4(C)C(=CC[C@H]4[C@@H]4C[C@H]([C@H](O)C(C)(C)O)OC4=O)[C@]3(C)[C@H](OC(C)=O)C[C@H]2C1(C)C: 870
- CC(=O)O[C@@H]1C[C@H]2C(C)(C)C(=O)C=C[C@]2(C)[C@H]2CC[C@]3(C)C(=CC[C@H]3[C@@H]3C[C@H]([C@H](O)C(C)(C)O)OC3=O)[C@@]21C: 670

Now examine the next entry.
## Task What value of measured IC50 is listed for CC(C)(O)[C@H](O)[C@H]1C[C@@H]([C@@H]2CC=C3[C@]4(C)[C@H](O)C[C@H]5C(C)(C)C(=O)C=C[C@]5(C)[C@H]4CC[C@]32C)C(=O)O1 ?
## Result 1300

---

Below, each of the molecules is paired with its reported selectivity ratio value.
Assay: Selectivity index, ratio of IC50 for rat L6 cells to IC50 for erythrocytic stages of Plasmodium falciparum NF54
Assay type: toxicity, cell-based
Conditions: read-out: Ratio IC50

- C=C(C)[C@@H]1CC=C2[C@H](CC[C@@]3(C)[C@H]([C@@H](C)CC(O)C(O)C(C)(C)O)CC[C@]23C)[C@@]1(C)CCC(=O)O (some centres undefined): 2.9
- CC(=O)O[C@@H]1C[C@H]2C(C)(C)C(=O)C=C[C@]2(C)[C@H]2CC[C@]3(C)C(=CC[C@H]3[C@@H]3C[C@H]([C@H](O)C(C)(C)O)OC3=O)[C@@]21C: 105
- CC(=O)O[C@@H]1C[C@H]2C(C)(C)[C@H](O)CC[C@]2(C)[C@H]2CC[C@]3(C)C(=CC[C@H]3[C@@H]3C[C@H]([C@H](O)C(C)(C)O)OC3=O)[C@@]21C: 21

Proceeding to the next molecule to report its selectivity ratio.
## Task Requested field: selectivity ratio. Item: CC(=O)O[C@@H]1C[C@H]2C(C)(C)C(=O)C=C[C@]2(C)[C@H]2CC[C@]3(C)C(=CC[C@H]3[C@@H]3C[C@H]([C@@H]4OC4(C)C)OC3=O)[C@@]21C
## Result 12.1
